Counter-ions that a name gives are not always drawn.
value.kind: Ki (µM)
Give just the number in µM; leave the unit off.

Item CSCC1(CO)CN(Cc2c[nH]c3c(N)ncnc23)C1 [Compound 21, hydrochloride] was tested on S. pneumoniae MTAN (Streptococcus pneumoniae); the reported Ki is 0.15

Item CSCC1CN(Cc2c[nH]c3c(N)ncnc23)C1 was tested on S. pneumoniae MTAN (Streptococcus pneumoniae); the reported Ki is 0.084

---

# experimental.system: Human PNP (Homo sapiens, UniProt P00491)
# Sequence (P00491 1-289): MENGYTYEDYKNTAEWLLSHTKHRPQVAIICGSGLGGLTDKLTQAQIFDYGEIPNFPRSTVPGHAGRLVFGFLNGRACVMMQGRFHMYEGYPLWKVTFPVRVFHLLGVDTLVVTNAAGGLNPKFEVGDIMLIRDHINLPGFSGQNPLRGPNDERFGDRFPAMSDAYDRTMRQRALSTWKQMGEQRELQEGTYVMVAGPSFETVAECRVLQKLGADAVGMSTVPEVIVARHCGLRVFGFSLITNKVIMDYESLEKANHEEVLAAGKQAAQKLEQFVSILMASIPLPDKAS
# assay.overview: PNP inhibition, xanthine oxidase coupled assay
# Assay type: biochemical
# condition.details: Ki Human PNP, inhibition constant Ki; inosine Km 40 μM
value.kind: pKi
Schema: pKi number; meaning minus log10 of the concentration expressed in molar units.

Item O=c1[nH]cnc2c(CN3CCC3CO)c[nH]c12 (racemic) [(±)-43] was tested on Human PNP (Homo sapiens, UniProt P00491); the reported pKi is 8.74
